{"compound": "O=C(c1ccccc1)P(=O)(O)C(=O)c1ccccc1 [^PhBAPO-ONBu4]", "unitsSymbol": "days", "half-life": 51.4}

Reference source: patent EP3539969A1
